# Test system: RAW264.7
# method-summary: Cytotoxicity against mouse RAW264.7 cells at 50 uM after 24 hrs in presence of 1 ug/ml LPS by MTT assay
# Assay type: cell-based
# experimental-parameters: raw264.7, 24 h
measurement-type: Activity

Some molecules with known Activity results, for comparison:
Input: Under RAW264.7: Activity value of `N#C[C@H]1N2CCC[C@H]3[C@@H]2[C@H](CN2C(=O)CCC[C@H]32)[C@H]2O[C@]21[C@@H]1CC[C@H]2[C@@H]3[C@@H](CCCN31)CN1C(=O)CCC[C@H]21` ?
Output: Non-Toxic

Input: Under RAW264.7: Activity value of `O=C1CCC[C@@H]2[C@H]3CC([C@H]4CC[C@H]5CN6C(=O)CCC[C@@H]6[C@H]6CCCN4[C@@H]56)=CN4CCC[C@@H](CN12)[C@@H]34` ?
Output: Non-Toxic

Input: Under RAW264.7: Activity value of `O=C1CCC[C@@H]2[C@H]3CCCN[C@H]3[C@H](CCC[C@H]3C[C@H]4CN5C(=O)CCC[C@@H]5[C@H]5CCCN(C3)[C@@H]45)CN12` ?
Output: Non-Toxic

Input: Under RAW264.7: Activity value of `O=C1CCC[C@@H]2[C@H]3CCCN4CC([C@@H]5CC[C@H]6[C@@H]7[C@@H](CCCN75)CN5C(=O)CCC[C@H]65)=C[C@@H](CN12)[C@@H]34` ?
Output: Non-Toxic

Continuing:
Input: Under RAW264.7: Activity value of `N#C[C@@H]1N2CCC[C@H]3CN4C(=O)CCC[C@@H]4[C@H]([C@H]32)[C@@H]2O[C@]12[C@H]1CC[C@H]2CN3C(=O)CCC[C@@H]3[C@H]3CCCN1[C@@H]23` ?
Output: Non-Toxic
